Biological target: Mineralocorticoid receptor (Homo sapiens)
Sequence (P08235 whole entry): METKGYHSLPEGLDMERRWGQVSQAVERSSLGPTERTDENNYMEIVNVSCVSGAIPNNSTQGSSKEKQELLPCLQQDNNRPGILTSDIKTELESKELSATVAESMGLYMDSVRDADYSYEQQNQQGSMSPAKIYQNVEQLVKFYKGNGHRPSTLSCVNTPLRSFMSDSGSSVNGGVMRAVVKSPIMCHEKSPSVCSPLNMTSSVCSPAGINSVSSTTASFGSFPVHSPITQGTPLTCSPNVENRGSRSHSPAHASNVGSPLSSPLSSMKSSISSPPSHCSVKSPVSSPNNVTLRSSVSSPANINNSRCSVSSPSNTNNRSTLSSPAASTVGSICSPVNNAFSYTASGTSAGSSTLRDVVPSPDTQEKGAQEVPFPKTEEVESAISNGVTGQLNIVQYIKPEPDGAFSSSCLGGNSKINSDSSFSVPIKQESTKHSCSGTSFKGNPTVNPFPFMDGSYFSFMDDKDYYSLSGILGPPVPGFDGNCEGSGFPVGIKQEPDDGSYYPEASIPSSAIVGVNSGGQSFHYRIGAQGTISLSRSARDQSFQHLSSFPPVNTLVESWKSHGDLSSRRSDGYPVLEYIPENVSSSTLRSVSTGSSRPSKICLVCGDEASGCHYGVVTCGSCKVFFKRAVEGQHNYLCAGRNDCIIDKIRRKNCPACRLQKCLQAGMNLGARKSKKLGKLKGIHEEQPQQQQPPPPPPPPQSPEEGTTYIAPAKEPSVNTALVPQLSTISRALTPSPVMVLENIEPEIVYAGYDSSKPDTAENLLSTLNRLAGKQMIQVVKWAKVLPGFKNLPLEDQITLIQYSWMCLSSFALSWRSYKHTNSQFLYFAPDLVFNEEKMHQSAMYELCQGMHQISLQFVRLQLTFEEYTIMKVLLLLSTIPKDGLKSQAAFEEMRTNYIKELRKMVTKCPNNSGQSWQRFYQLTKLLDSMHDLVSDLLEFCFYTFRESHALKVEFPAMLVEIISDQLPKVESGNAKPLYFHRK
Experiment: Displacement of [3H]aldosterone from GST-tagged human mineralocorticoid receptor ligand binding domain after 4 hrs by liquid scintillation counting
Assay Readout: IC50 (nM)

Examples with answers:
> print(dat)
                               given.smiles  assay.readout  result
1  Cc1noc(C)c1S(=O)(=O)NCc1ccc(-c2cncc(C#N)c2)cc1           IC50    1970
2  COc1ccc(C#N)cc1-c1ccc(CNS(=O)(=O)c2c(C)noc2C)cc1           IC50      45
3  Cc1nccn1-c1ccc(CNS(=O)(=O)c2ccc(F)cc2F)cc1           IC50    2090
4  Cc1nccn1-c1ccc(CNS(=O)(=O)c2cc(F)ccc2F)cc1           IC50     627

A = Cc1nccn1-c1ccc(CNS(=O)(=O)c2cc(F)ccc2F)cc1F
B = Cc1noc(C)c1S(=O)(=O)NCc1ccc(-c2cccc(C#N)c2)cc1
[in] Which gives the smaller IC50 number: A or B ? Write down the label attached to your selection.
[out] B
(B: 40 nM, A: 168 nM)

----------
Target: UniProt:P08235
Sequence (P08235 whole entry): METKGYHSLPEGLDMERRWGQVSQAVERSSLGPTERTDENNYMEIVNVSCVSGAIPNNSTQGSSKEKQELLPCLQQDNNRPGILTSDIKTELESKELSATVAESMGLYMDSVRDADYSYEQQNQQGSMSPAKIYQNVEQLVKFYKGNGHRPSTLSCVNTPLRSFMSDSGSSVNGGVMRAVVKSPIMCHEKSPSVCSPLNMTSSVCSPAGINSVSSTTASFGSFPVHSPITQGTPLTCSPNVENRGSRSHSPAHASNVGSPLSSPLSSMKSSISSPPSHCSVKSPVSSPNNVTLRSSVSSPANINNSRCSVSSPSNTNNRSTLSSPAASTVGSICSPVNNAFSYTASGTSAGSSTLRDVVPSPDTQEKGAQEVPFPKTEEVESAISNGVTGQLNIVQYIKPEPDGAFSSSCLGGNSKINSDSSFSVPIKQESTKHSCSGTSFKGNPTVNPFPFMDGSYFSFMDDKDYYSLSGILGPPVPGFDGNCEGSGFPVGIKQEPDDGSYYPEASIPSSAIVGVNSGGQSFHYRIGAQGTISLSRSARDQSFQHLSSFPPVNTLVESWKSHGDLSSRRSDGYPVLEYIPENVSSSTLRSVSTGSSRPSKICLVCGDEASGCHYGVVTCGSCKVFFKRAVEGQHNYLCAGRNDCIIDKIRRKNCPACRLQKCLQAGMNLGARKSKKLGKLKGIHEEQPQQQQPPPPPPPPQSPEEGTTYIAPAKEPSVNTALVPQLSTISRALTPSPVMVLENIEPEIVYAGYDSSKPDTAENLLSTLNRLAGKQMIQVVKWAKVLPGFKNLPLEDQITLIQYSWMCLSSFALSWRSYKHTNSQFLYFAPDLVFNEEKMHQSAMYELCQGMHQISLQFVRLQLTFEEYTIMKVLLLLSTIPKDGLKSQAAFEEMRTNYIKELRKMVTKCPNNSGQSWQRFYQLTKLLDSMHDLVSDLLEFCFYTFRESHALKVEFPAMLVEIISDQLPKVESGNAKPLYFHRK
Assay Readout: pKi
# pKi: negative log10 of molar concentration; output just the value

[in] Could you tell me which pKi is on file for Cc1cn(-c2ccc(CNS(=O)(=O)c3cc(F)ccc3F)cc2)c(C)n1 ?
[out] 6.95
